Molecular target: T1, C5aR1 (Homo sapiens, UniProt P21730)
T1 sequence (P21730 1-350): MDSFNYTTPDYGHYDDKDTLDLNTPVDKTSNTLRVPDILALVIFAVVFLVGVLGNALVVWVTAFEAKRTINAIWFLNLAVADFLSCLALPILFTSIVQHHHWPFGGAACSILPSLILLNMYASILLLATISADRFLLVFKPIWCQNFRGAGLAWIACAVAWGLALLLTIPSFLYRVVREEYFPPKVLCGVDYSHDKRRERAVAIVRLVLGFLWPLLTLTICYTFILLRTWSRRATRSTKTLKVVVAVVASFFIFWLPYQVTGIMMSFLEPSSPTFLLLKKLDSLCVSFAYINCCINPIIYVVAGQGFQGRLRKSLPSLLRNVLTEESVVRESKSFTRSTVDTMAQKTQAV
Test: GeneBLAzer reporter assay (C5aR1 mediated Gα signaling)
Format: cell-based
Design: host or cells: vendor's C5aR1 GeneBLAzer reporter cell line
Settings: 10 nM of antibody, 10 nM C5a
measuredParameter: antagonism of C5aR1 compared to reference antibodies or to Avacopan

- molecule: "clone 11v2: anti-C5aR1 Site II antibody; VH SEQ ID NO: 482, VL SEQ ID NO: 542 (antibody, V domains shown) VH: QVQLQQSGPELVKPGASVKISCKASGYSFSSSWMNWVKQRPGKGLEWIGRISPGDGDTRYSGKFKGKATLTADKSSSTAYMQVTSLTSEDSAIYFCVRFLITSTRYVMDYWGQGTTVTVSS VL: DVVMTQTPLSLPVSLGDQASISCRSSQSLVHSNGNTYLHWYLQKPGQSPKLLIYKVSNRFSGVPDRFSGSGSGTDFTLKISRVEAEDLGVYFCSQSTLVPPTFGGGTKLEIK"
  reported: "improved"
- molecule: "clone 329: anti-C5aR1 Site II antibody; VH SEQ ID NO: 492, VL SEQ ID NO: 552 (antibody, V domains shown) VH: QVQLQQSGAELTKPGASVKLSCKASGYTFTNYWMHWVKQRPGQGLEWIGYLNPSSGYTKYNQKFKDKATLTADKSSSTAYMQLNSLTYEDSAVYYCTRSGGDNYGNPYYFDRWGQGTTVTVSS VL: DVVMTQTPLSLTVSLGDQASISCRSSQSLVHSNGNTYLHWYLQKPGQSPKFLIYKVSNRFSGVPDRFSGSGSGTDFRLKISRVEAEDLGVYFCSQSTLVPLTFGAGTKLEIK"
  reported: "improved"
- molecule: "clone 583: anti-C5aR1 Site I antibody; VH SEQ ID NO: 536, VL SEQ ID NO: 595 (antibody, V domains shown) VH: EVQLVESGGGLVKPGGSLKLSCAASGFTFNAYAMSWVRQTPEKRLEWVASISTGGNTYCPDSVKDRFTVSRDNVRNILYLQMSSLRSEDTAMYYCTRGYQRFSGFAYWGQGTLVTVS VL: DVVMTQTPLSPPVSLGYQASISCRSSQSLVHSNGNTYLNWYLQKPGQSPKLLIYKVSNRLSGVPDRFSGSGSGTDFTLKISRVETEDLGVYFCSQSTHVPYTFGGGTKLEIK"
  reported: "improved"
